Values were extracted from patent US20260297042A1.

- experimental-target: WEE1 (Homo sapiens)
- Construct: purchased Thermo Fisher PR7373A
- Sequence (P30291 whole entry): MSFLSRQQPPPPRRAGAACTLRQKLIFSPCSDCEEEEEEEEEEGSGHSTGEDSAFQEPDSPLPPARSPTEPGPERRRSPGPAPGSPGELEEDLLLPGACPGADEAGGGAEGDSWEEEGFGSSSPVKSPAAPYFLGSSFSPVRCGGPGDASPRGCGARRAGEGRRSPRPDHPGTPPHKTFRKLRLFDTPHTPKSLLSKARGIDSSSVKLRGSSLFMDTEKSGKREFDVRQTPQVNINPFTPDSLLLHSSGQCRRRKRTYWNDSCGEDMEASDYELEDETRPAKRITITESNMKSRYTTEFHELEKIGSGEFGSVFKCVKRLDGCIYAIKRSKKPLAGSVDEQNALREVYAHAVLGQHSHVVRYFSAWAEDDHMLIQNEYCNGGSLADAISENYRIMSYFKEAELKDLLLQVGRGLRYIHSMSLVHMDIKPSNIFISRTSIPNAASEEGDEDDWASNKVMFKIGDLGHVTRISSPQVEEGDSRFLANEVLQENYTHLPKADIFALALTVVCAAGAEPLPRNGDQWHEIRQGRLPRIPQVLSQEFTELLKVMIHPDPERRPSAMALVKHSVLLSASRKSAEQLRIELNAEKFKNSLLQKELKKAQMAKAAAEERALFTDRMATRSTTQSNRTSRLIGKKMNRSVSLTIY
- experiment-description: Selectivity versus WEE1 assay (ADP-Glo enzymatic assay)
- Format: biochemical
- condition-details: fold difference in selectivity for PKMYT1 over WEE1; banded; ">N" = at least in this band but could be higher
- Experimental: Selectivity versus WEE1 assay: Selectivity was established using the same format as outlined for PKMYT1. […] After 60 minutes the luminescence signal was read on a PHERAStar FS microplate reader (BMG Labtech). Data analysis: Data was captured and analysed within the Dotmatics Studies software module where dose response curves were generated and IC50 values determined. […]
measured-metric: PKMYT1 vs. WEE1 selectivity

CCN(CC)C(=O)Cn1ccc(Nc2ncc(C(=O)Nc3c(C)ccc(O)c3C)s2)n1 [BAA-173]    Y (1000-5000 fold)
Cc1ccc(O)c(C)c1NC(=O)c1cnc(Nc2nc(NC(=O)C(C)(C)C)ccc2Cl)s1.Cl [BAA-333]    Y (1000-5000 fold)

----------
Entries and their pIC50 values follow.
- experimental-target: Cellular PKMYT1 Biomarker CDK1 pT14 (Homo sapiens, UniProt Q99640)
- Construct: read-out CDK1 phospho-T14 immunoblot
- Sequence (Q99640 whole entry): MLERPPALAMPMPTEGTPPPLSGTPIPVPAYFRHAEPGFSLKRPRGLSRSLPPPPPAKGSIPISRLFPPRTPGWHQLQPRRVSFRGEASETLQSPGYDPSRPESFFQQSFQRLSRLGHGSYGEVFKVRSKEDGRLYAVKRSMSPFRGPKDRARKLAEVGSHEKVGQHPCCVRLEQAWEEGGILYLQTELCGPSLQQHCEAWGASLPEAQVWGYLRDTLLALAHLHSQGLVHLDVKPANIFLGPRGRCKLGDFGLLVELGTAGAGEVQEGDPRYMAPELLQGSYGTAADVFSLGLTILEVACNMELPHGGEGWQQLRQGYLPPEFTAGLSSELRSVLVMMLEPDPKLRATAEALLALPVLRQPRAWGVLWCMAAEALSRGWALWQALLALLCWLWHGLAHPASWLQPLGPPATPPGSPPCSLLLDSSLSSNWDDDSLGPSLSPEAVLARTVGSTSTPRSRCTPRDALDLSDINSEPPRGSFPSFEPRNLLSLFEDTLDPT
- experiment-description: Inhibition of cellular PKMYT1 biomarker CDK1 pT14 in OVCAR 3 cells (immunoblot)
- Type: cell-based
- condition-details: 20 hours incubation
pIC50: −log10 of the molar value.
measured-metric: pIC50

Cc1ccc(O)c(C)c1NC(=O)c1cnc(Nc2cc(N3CCOCC3)ncn2)s1    > 7.00
Cc1cn(CC(F)F)nc1Nc1ncc(C(=O)Nc2c(C)ccc(O)c2C)s1    > 7.00
Cc1ccc(O)c(C)c1NC(=O)c1cnc(Nc2cc(N3CCOCC3)ccn2)s1    > 7.00
Cc1cn(CC(=O)N2CCCC2(C)C)nc1Nc1ncc(C(=O)Nc2c(C)ccc(O)c2C)s1    > 7.00
Cc1cc(Nc2ncc(C(=O)Nc3c(C)ccc(O)c3C)s2)nc(NCCC(C)(C)C)n1    > 7.00
Cc1ccc(F)c(Nc2ncc(C(=O)Nc3c(C)ccc(O)c3C)s2)n1    > 7.00
Cc1ccc(O)c(C)c1NC(=O)c1cnc(Nc2cccc(-c3ccc(C(F)(F)F)cc3)n2)s1    6.00 to 7.00
Cc1cn(-c2cnn(C)c2)nc1Nc1ncc(C(=O)Nc2c(C)ccc(O)c2C)s1    > 7.00
Cc1cn(CC#N)nc1Nc1ncc(C(=O)Nc2c(C)ccc(O)c2Br)s1    6.00 to 7.00
Cc1ccc(NC(=O)c2ccc(F)cc2)nc1Nc1ncc(C(=O)Nc2c(C)ccc(O)c2C)s1    > 7.00
Cc1ccc(O)c(C)c1NC(=O)c1cnc(Nc2nn(CC(F)F)cc2Cl)s1    > 7.00
Cc1cn(CC(F)F)nc1Nc1nnc(C(=O)Nc2c(C)ccc(O)c2C)s1    6.00 to 7.00
CCN(C(=O)C(CO)n1cc(C)c(Nc2ncc(C(=O)Nc3c(C)ccc(O)c3C)s2)n1)C1CC1 (centres unmarked)    > 7.00
Cc1cn(-c2cnn(C(C)C)c2)nc1Nc1ncc(C(=O)Nc2c(C)ccc(O)c2C)s1    > 7.00
CCn1nc(Nc2ncc(C(=O)Nc3c(C)ccc(O)c3C)s2)c2cc(C(F)(F)F)ccc21    > 7.00
Cc1ccc(O)c(C)c1NC(=O)c1cnc(Nc2nc(NC(=O)C(C)(C)C)ccc2Cl)s1.Cl [BAA-333, hydrochloride]    > 7.00
Cc1ccc(O)c(C)c1NC(=O)c1cnc(Nc2cccc(N3CCC(NC(=O)OC(C)(C)C)CC3)n2)s1    6.00 to 7.00
